Taken from patent US11530229B2.

In this section we review reported fold induction at 0.3 µM values for a set of compounds.
system: primary human total T-cells; assay: T-cell activation, CD25 surface staining, Biological Example 2; type: cell-based; settings: anti-CD3 and anti-CD28 co-stimulation, 48 hours, 0.3 μM inhibitor, fold change over baseline

Study these solved cases before continuing.
• CC1CCN(Cc2cc3c(c(C(F)(F)F)c2)CN(c2cccc([C@]4(Cc5nncn5C)C[C@@H](C#N)C4)c2)C3=O)CCO1 (stereo partly drawn) [Compound 36] = 1.24 to 1.39
• C[C@@H]1CN(Cc2cc3c(c(C(F)(F)F)c2)CN(c2cccc([C@]4(Cc5nncn5C)C[C@](C)(C#N)C4)c2)C3=O)CCO1 [Compound 10] = ≤ 1.24

For the next question, use this compound.
Form: compound = CC1COCCN(Cc2cc3c(c(C(F)(F)F)c2)CN(c2cccc([C@]4(Cc5nncn5C)C[C@@H](C#N)C4)c2)C3=O)C1 (stereo partly drawn) [Compound 35] ; fold induction at 0.3 µM = 1.24 to 1.39
